System: SF-539 CNS
Method: NCI tumour cell line growth inhibition, 48 h
Endpoint: log10 TGI (log10 of the value in µM)
Heads up, the numbers here are log10 of TGI in µM units.

# annotated cases, reported log10 TGI shown
* O=C(Nc1ccc(Cl)cc1Cl)OC(Cn1cncn1)c1ccc(Cl)cc1Cl (stereo not given) | 1.51
* N[C@@H]1CCN(c2c(F)cc3c(=O)c(C(=O)O)cn4c3c2Oc2cc3c(ccc5ccccc53)cc2-4)C1 | 1.45
* CC(=O)O[C@H]1C(=O)[C@@]2(C)[C@H]([C@H](OC(=O)c3ccccc3)[C@]3(O)C[C@H](OC(=O)[C@H](O)[C@@H](NC(=O)c4ccco4)c4ccccc4)C(C)=C1C3(C)C)[C@]1(OC(C)=O)CO[C@@H]1C[C@@H]2O | -2.34
* Cc1cc2nc3ccccc3n2c2nc(N)ccc12 | 1.71
* COc1ccc(N=NC(=O)NC(CC(C)C)C(=O)NCC(=O)O)cc1 (stereo not given) | 1.47

IN: Quick check: log10 TGI of CCCCCCCCCCCCOC1C(CNC(=O)C2OC3OC(C)(C)OC3C2NC(=O)CN2CCN(c3ccc(OC)cc3)CC2)OC2OC(C)(C)OC21 (stereo not given) ?
OUT: 1.34

* * *

Tested on: UACC-62 melanoma
Method: NCI tumour cell line growth inhibition, 48 h; in the data active = GI50 below about 0.43 µM; inactive = the rest
Respond only with the outcome that fits, drawn from active, inactive

* CCNC(=O)Oc1ccc(/C(=C(/C)Cc2ccc(OC)cc2)c2ccc(OCCN(CC)CC)cc2)cc1 | inactive

IN: For CCN(CC)CCCC(C)N/C(=C1\C(=O)NC(=O)\C1=C(/NC(C)CCCN(CC)CC)c1cccc(OC)c1)c1cccc(OC)c1 (centres undefined) , which call appears in the assay record?
OUT: inactive

IN: For "Cc1cc(C)c(-c2c(N)cc(Br)cc2Br)c(N)c1" , which call appears in the assay record?
OUT: inactive

IN: For "COC(=O)c1cc2c3ccccc3n3c2c(n1)-c1[nH]c2ccccc2c(=O)c1C3" , which call appears in the assay record?
OUT: inactive

IN: For "C/C(=C(\c1ccc(OCCN2CCCCCC2)cc1)c1ccc(OC(=O)c2ccccc2)cc1)c1ccc(Cl)cc1" , which call appears in the assay record?
OUT: inactive

IN: For "COc1ccc(/C=C2/SC(Nc3nc(-c4nc(NC5=NC(=O)/C(=C\c6ccc(OC)cc6)S5)sc4C)c(C)s3)=NC2=O)cc1" , which call appears in the assay record?
OUT: active

IN: For "CCOc1ccn(-c2ccc(F)cc2)c(=O)c1C(=O)Nc1ccc(Oc2ccnc(N)c2Cl)c(F)c1" , which call appears in the assay record?
OUT: inactive

IN: For "Cn1c2c(c3c(Cl)nncc31)Cc1ccccc1-2" , which call appears in the assay record?
OUT: inactive

IN: For O=C(O)C1[O][Sb][O]C(C(=O)O)C1O (centres undefined) , which call appears in the assay record?
OUT: inactive

* * *

Parameter: TGI. Scope: all listed entries.
Test system: SW-620 colon
Method: NCI tumour cell line growth inhibition, 48 h

# annotated cases, reported TGI shown
- CC[C@@H](C)/C=C(C)/C=C/C(=O)c1c(O)c(-c2ccc(O)cc2)cn(O)c1=O: 14 µM
- COc1cccc(Nc2nc3ccccc3c3occc23)c1: 34.3 µM
- NS(=O)(=O)c1cc(C(=O)O)c(O)c2ccccc12: > 100 µM
- COc1ccc(/C=C2/SC(Nc3nc(-c4nc(NC5=NC(=O)/C(=C\c6ccc(OC)cc6)S5)sc4C)c(C)s3)=NC2=O)cc1: > 50 µM
- CC(=O)[C@H]1CCC/C=C/[C@@H]2C[C@H](O)C[C@H]2[C@H](O)/C=C/C(=O)O1: 1.56 µM

IN: Quick check: TGI of CC(=O)N1N=C(c2ccc(Nc3nc(Nc4ccc(F)cc4)nc(Nc4ccc(F)cc4)n3)cc2)CC1c1ccc(N(C)C)cc1 (stereo unspecified) ?
OUT: 18.8 µM

IN: Quick check: TGI of "CCOc1ccn(-c2ccc(F)cc2)c(=O)c1C(=O)Nc1ccc(Oc2ccnc(N)c2Cl)c(F)c1" ?
OUT: 38.4 µM

IN: Quick check: TGI of "CCOC(=O)c1nc2cc(C(F)(F)F)ccc2nc1Nc1ccc(C(=O)OC)s1" ?
OUT: > 100 µM

IN: Quick check: TGI of Cn1c2c(c3ccccc31)CCN1C(=O)CCC21 (stereo unspecified) ?
OUT: > 10 µM

IN: Quick check: TGI of "Cc1nc2c(o1)C(=Nc1ccccc1)c1nc(C)oc1C2=Nc1ccccc1" ?
OUT: > 100 µM

IN: Quick check: TGI of "S=c1ncc2c([nH]1)C1c3ccccc3C2c2ccccc21" ?
OUT: > 100 µM

IN: Quick check: TGI of "Clc1ccc(CCN[C@H]2CCCC[C@H]2N2CCCC2)cc1Cl" ?
OUT: > 100 µM

IN: Quick check: TGI of COC1(OC)C2(Cl)C(Cl)=C(Cl)C1(Cl)C1C2C2CC1(C(=O)O)c1ccccc12 (stereo unspecified) ?
OUT: 54.3 µM

IN: Quick check: TGI of "Cc1cc(C)c(-c2noc(-c3ccc(Cl)cc3)c2C2=NCCCN2)c(C)c1" ?
OUT: > 100 µM

IN: Quick check: TGI of "O=C1O/C(=C/c2ccccc2)C(c2ccccc2)=C1O" ?
OUT: > 100 µM

IN: Quick check: TGI of COC(=O)[C@@]12CC(C(C)C)[C@H]3CC(C(=O)C=C1OC)[C@H]32 (stereo partly specified) ?
OUT: > 100 µM

IN: Quick check: TGI of CC(=O)c1ccc2c(c1)CC1(C2)Cc2cc3c(c(C(=O)O)c2C1)CCC3 (stereo unspecified) ?
OUT: > 100 µM

IN: Quick check: TGI of "Clc1ccccc1-c1nnc2c(Cc3ccccc3)nc3ccccc3n12" ?
OUT: > 100 µM

IN: Quick check: TGI of "Cc1cccc2sc(-c3ccc(O)cc3)nc12" ?
OUT: 23.7 µM

IN: Quick check: TGI of "COc1cc2c(c(OC)c1OC)-c1ccc(SC)c(=O)cc1[C@@H](O)CC2" ?
OUT: > 100 µM

IN: Quick check: TGI of CC(C)C1NC(=O)CC(c2ccccc2)N(N=O)C1c1ccccc1 (stereo unspecified) ?
OUT: > 100 µM
